Measured %Inh by item
# System: ROCK2
# recorded conditions: concentration: 1 μM,replicates: in singlicate; n = 1;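 note: KINOMEscan kinase panel screen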
quantity: %Inh (%)

[[record]]
compound = "Cc1ccc(CC(=O)N2CCc3cc(-c4cn(C)c5ncnc(N)c45)ccc32)cc1 [GSK2634758]"
study_system = "ROCK2"
data_value = 21

[[record]]
compound = "CS(=O)c1ccc(-c2coc3ccc(-c4n[nH]c(=O)o4)cc23)cc1 (stereo not drawn)"
study_system = "ROCK2"
data_value = 0

[[record]]
compound = "COc1ccc(Nc2nccc(N3CCC(NC(=O)c4cccc(C#N)c4)C3)n2)cc1 (stereo not drawn) [GSK1379730]"
study_system = "ROCK2"
data_value = 14

[[record]]
compound = "C[C@@H]1CNc2c(sc3ccc4nc(-c5ccc(O)cc5)ccc4c23)C(=O)N1"
study_system = "ROCK2"
data_value = 51

[[record]]
compound = "O=C(NCC1CC1)c1ccc(-c2cc(C(=O)NC3CC3)ccc2F)cc1 [GW810445]"
study_system = "ROCK2"
data_value = 9

[[record]]
compound = "C[C@@H]1CNc2c(sc3ccc4nc(-c5ccncc5)ccc4c23)C(=O)N1"
study_system = "ROCK2"
data_value = 1

[[record]]
compound = "CC(C)S(=O)(=O)N1CCN(Cc2ccc3c(c2)nc(NC(=O)c2ccsc2)n3C[C@H](O)c2ccccc2)CC1 [GW635815]"
study_system = "ROCK2"
data_value = 63

[[record]]
compound = "FC(F)(F)c1cc(Br)cc(Nc2nccc(-c3cnn4ncccc34)n2)c1 [GW810578]"
study_system = "ROCK2"
data_value = 23

[[record]]
compound = "O=C(Nc1cccc(Oc2ccc3nccn3n2)c1)Nc1cccc(C(F)(F)F)c1"
study_system = "ROCK2"
data_value = 0


* * *

# System: MARK2
# recorded conditions: concentration: 1 μM,replicates: in singlicate; n = 1
With a cut-off of 10%, any %Inh strictly below it is called t; any %Inh meeting it or above is called f.

[[record]]
molecule = "COC(=O)Nc1nc2cc(Oc3ccc(NC(=O)Nc4cc(C(F)(F)F)ccc4Cl)cc3)ccc2[nH]1.Cl [GW697465]"
study_system = "MARK2"
group = "t"

[[record]]
molecule = "CS(=O)c1ccc(-c2coc3ccc(-c4n[nH]c(=O)o4)cc23)cc1 (stereo not drawn)"
study_system = "MARK2"
group = "f"

[[record]]
molecule = "O=C(Nc1cccc(C(F)(F)F)c1)c1cccc(Oc2ccc3nccn3n2)c1"
study_system = "MARK2"
group = "t"

[[record]]
molecule = "COc1cccc(C2=C(Nc3cccc(Cl)c3)C(=O)NC2=O)c1 [SB-341556]"
study_system = "MARK2"
group = "t"

[[record]]
molecule = "O=C(Nc1cccc(Oc2ccc3nccn3n2)c1)Nc1cccc(C(F)(F)F)c1"
study_system = "MARK2"
group = "f"

[[record]]
molecule = "Cc1cccc2c(-c3ccncc3)c(-c3ccc(F)cc3)nn12.Cl [GW461487]"
study_system = "MARK2"
group = "t"

[[record]]
molecule = "CC(C)S(=O)(=O)N1CCN(Cc2ccc3c(c2)nc(NC(=O)c2ccsc2)n3C[C@H](O)c2ccccc2)CC1 [GW635815]"
study_system = "MARK2"
group = "f"

[[record]]
molecule = "C[C@@H](Oc1cc(-n2cnc3cc(-c4cnn(C)c4)ccc32)sc1C(N)=O)c1ccccc1Cl [GSK580432]"
study_system = "MARK2"
group = "f"

[[record]]
molecule = "COC(=O)c1cccc(NC(=O)NC2CCN(c3ccnc(NCc4ccc(F)cc4)n3)CC2)c1 [GSK1379860]"
study_system = "MARK2"
group = "t"


* * *

Listed here: items and their measured %Inh.
# Tested on: PRKD3
# recorded conditions: concentration: 1 μM,replicates: in singlicate; n = 1
quantity: %Inh (%)

[[record]]
compound = "Cc1cccc2c(-c3ccncc3)c(-c3ccc(F)cc3)nn12.Cl"
data_value = 0

[[record]]
compound = "CN(c1cccc(CNc2nc(Nc3ccc4c(c3)CC(=O)N4)ncc2C(F)(F)F)c1)S(C)(=O)=O"
data_value = 28

[[record]]
compound = "Cn1ccc2ncnc(Oc3ccc(NC(=O)Nc4cc(C(C)(C)C)on4)c(Cl)c3)c21"
data_value = 0

[[record]]
compound = "CS(=O)(=O)Nc1ccc(-c2ccnc3[nH]ccc23)cc1"
data_value = 0

[[record]]
compound = "COc1cc(Nc2nccc(N3CCC(NC(=O)c4cccc(C#N)c4)C3)n2)cc(OC)c1OC (stereo not drawn)"
data_value = 0

[[record]]
compound = "O=C(Nc1n[nH]c2cc(-c3ccco3)ccc12)C1CC1"
data_value = 0

[[record]]
compound = "Cn1ccc2ncnc(Oc3ccc(NC(=O)Nc4cncc(C(F)(F)F)c4)c(Cl)c3)c21"
data_value = 0

[[record]]
compound = "Cn1ccc2ncnc(Oc3ccc(NC(=O)Nc4cnn(C(C)(C)C)c4)c(Cl)c3)c21"
data_value = 4

[[record]]
compound = "Cc1ccc2c(-c3ccnc(Nc4ccc(C(F)(F)F)cc4)n3)cnn2n1"
data_value = 0

[[record]]
compound = "C[C@@H](Oc1cc(-n2cnc3ccc(-c4ccncc4)cc32)sc1C(N)=O)c1ccccc1Cl"
data_value = 27

[[record]]
compound = "Cl.Nc1n[nH]c2cc(-c3ccccn3)ccc12"
data_value = 0

[[record]]
compound = "c1ccc(Oc2ccc(Nc3ccnc4ccc(-c5ccccn5)cc34)cc2)cc1"
data_value = 33

[[record]]
compound = "CCn1c(-c2nonc2N)nc2cncc(CNC3CCNCC3)c21.Cl"
data_value = 50

[[record]]
compound = "O=C(Nc1cccc(Oc2ccc3nccn3n2)c1)Nc1cccc(C(F)(F)F)c1"
data_value = 20

[[record]]
compound = "CS(=O)c1ccc(-c2coc3ccc(-c4n[nH]c(=O)o4)cc23)cc1 (stereo not drawn)"
data_value = 0

[[record]]
compound = "Cc1cccc(-c2nc(Nc3ccncc3)c3sccc3n2)n1"
data_value = 90.7

[[record]]
compound = "Cl.c1ccc(Oc2ccc(Nc3ccnc4cc(-c5ccc(CN6CCNCC6)o5)ccc34)cc2)nc1"
data_value = 19

[[record]]
compound = "COc1cccc(C2=C(Nc3cccc(Cl)c3)C(=O)NC2=O)c1"
data_value = 6


* * *

# System: MTOR
# recorded conditions: concentration: 1 μM,replicates: in singlicate; n = 1
Below, each entry is listed alongside its reported %Inh.
quantity: %Inh (%)

[[record]]
compound = "CC(C)c1nc(-c2cccc(NS(=O)(=O)c3ccccc3)c2)c(-c2ccnc(Nc3ccc4c(c3)CN(C)CC4)n2)s1 [GSK1649598]"
study_system = "MTOR"
quantity = "%Inh"
data_value = 0

[[record]]
compound = "Cl.c1ccc(Oc2ccc(Nc3ccnc4cc(-c5ccc(CN6CCNCC6)o5)ccc34)cc2)nc1 [GW567142]"
study_system = "MTOR"
quantity = "%Inh"
data_value = 0

[[record]]
compound = "CN1CCN(CCCNc2nccc(-c3c(-c4ccc(F)cc4)nn4cc(C(N)=O)ccc34)n2)CC1 [GW622475]"
study_system = "MTOR"
quantity = "%Inh"
data_value = 5

[[record]]
compound = "COC(=O)c1cccc(NC(=O)NC2CCN(c3ccnc(Nc4cc(OC)c(OC)c(OC)c4)n3)C2)c1 (stereo not shown) [GSK1379767]"
study_system = "MTOR"
quantity = "%Inh"
data_value = 26


* * *

# Test system: JNK2
# Construct: gene MAPK9
# recorded conditions: concentration: 1 μM,replicates: in singlicate; n = 1
quantity: %Inh

[[record]]
compound = "COc1cccc(C2=C(Nc3cccc(Cl)c3)C(=O)NC2=O)c1"
data_value = "44%"

[[record]]
compound = "CN1CCN(CCCNc2nccc(-c3c(-c4ccc(F)cc4)nn4cc(C(N)=O)ccc34)n2)CC1"
data_value = "99.6%"

[[record]]
compound = "CC(C)S(=O)(=O)N1CCN(Cc2ccc3c(c2)nc(NC(=O)c2ccsc2)n3C[C@H](O)c2ccccc2)CC1"
data_value = "10%"

[[record]]
compound = "NC(=O)c1ccc(-c2cc3ncnc(SCC(=O)O)c3s2)cc1"
data_value = "0%"


* * *

Reported %Inh is given for each of the following compounds.
# System: FES
# recorded conditions: concentration: 1 μM,replicates: in singlicate; n = 1
quantity: %Inh (%)

[[record]]
compound = "CC(=O)c1c(-c2ccncc2)[nH]c(-c2ccncc2)c1C [GW493036]"
data_value = 0

[[record]]
compound = "CC(=O)Nc1ccc(-c2cc3ncnc(SCC(=O)O)c3s2)cc1"
data_value = 14

[[record]]
compound = "CC(C)c1nc(-c2cccc(NS(=O)(=O)c3ccccc3)c2)c(-c2ccnc(Nc3ccc4c(c3)CN(C)CC4)n2)s1 [GSK1649598]"
data_value = 0

[[record]]
compound = "Cn1ccc2ncnc(Oc3ccc(NC(=O)Nc4ccnc(C(F)(F)F)c4)c(Cl)c3)c21"
data_value = 10

[[record]]
compound = "Cn1ccc2ncnc(Oc3ccc(NC(=O)Nc4cccc(C(F)(F)F)c4)c(Cl)c3)c21"
data_value = 9

[[record]]
compound = "O=C(Nc1n[nH]c2cc(-c3ccco3)ccc12)C1CC1 [SB-737447]"
data_value = 1

[[record]]
compound = "COC(=O)c1cccc(NC(=O)NC2CCN(c3ccnc(NCc4ccc(F)cc4)n3)CC2)c1 [GSK1379860]"
data_value = 1

[[record]]
compound = "Cc1ccc(Nc2ccnc(Nc3ccc4c(c3)CS(=O)(=O)C4)n2)cc1O.Cl [GW579362]"
data_value = 2

[[record]]
compound = "Cc1ccc(CC(=O)N2CCc3cc(-c4cn(C)c5ncnc(N)c45)ccc32)cc1 [GSK2634758]"
data_value = 0

